- Experiment Summary: recombinant barcode read abundance after kanamycin selection (control-corrected) (log10(CPM+1)); higher = more efficient recombination; sequences stand for … in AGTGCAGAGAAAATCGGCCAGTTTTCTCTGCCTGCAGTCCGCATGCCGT…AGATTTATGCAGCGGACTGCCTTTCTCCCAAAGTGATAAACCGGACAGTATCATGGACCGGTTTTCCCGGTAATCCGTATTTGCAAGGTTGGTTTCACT; site = the 11-nt target
# recombinant barcode read abundance (log10) per entry
Readout Label: recombinant barcode read abundance (log10)

* CTATATGCTTGGGTTCTAACCTGTTGCTT (site TAGACCACTGT) | 0.449
* GCGCGGCCTTGGGTTCTAACCTGTTGCTT (site GCGCGGCCTAA) | 0.492
* AAGCCTACTTGGGTTCTAACCTGTTGCTA (site GAGCCTACTTA) | 0.0396
* AGGTCTACTTGGGTTCTAACCTGTTGCTT (site GAACGCTCTTG) | 0.171
* TAGGCCACTTGGGTTCTAACCTGTTGCTT (site TAGGCCACTAG) | 0.36
* ATTCACACTTGGGTTCTAACCTGTTGCGT (site ATTCACACTAC) | 2.16
* GCAGAGTCTTGGGTTCTAACCTGTTGCCT (site GGAGAGTCTAG) | 0.0924
* GTGCGCTCTTGGGTTCTAACCTGTTGCGC (site CCAGCTGCTAG) | 0.0659
* ATGACTACTTGGGTTCTAACCTGTTGCTA (site ATGACTACTTA) | 0.456
* GGTTGTTCTTGGGTTCTAACCTGTTGCCT (site TGTTGTTCTAG) | 0.0976
* GGAGAGACTTGGGTTCTAACCTGTTGCAT (site GGAGAGACTAT) | 2.79
* AACTCTCCTTGGGTTCTAACCTGTTGCAT (site AACTGTCCTAT) | 0.188

----------
- Experiment Summary: recombinant UMI read abundance after kanamycin selection (control-corrected) (log10(CPM+1)); higher = more efficient recombination; extreme values may be limits of the assay; sequences stand for … in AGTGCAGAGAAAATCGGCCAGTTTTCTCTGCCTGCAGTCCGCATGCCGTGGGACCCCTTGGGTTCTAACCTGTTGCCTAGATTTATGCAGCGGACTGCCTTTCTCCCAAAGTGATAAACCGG…AGGTTGGTTTCACT; site = the 11-nt donor
# recombinant UMI read abundance (log10) per entry
Readout Label: recombinant UMI read abundance (log10)

* CTTGGAACATGGACCGGTTTTCCCGGTAATCCGTATTTGTT (site CGTGGAACTAA) | 0.00508
* TAAAGTCCATGGACCGGTTTTCCCGGTAATCCGTATTTGTT (site TAAAGTCCTAA) | 0.293
* GGGCGATCATGGACCGGTTTTCCCGGTAATCCGTATTTGGC (site GGGCGATCTGC) | 1.98
* TAGCCTTCATGGACCGGTTTTCCCGGTAATCCGTATTTGGT (site TAGCCGTCTAC) | 0.0151
* CCAGGTGCATGGACCGGTTTTCCCGGTAATCCGTATTTGCT (site CCAGGTGCTAG) | 1.46
* GTCACGCCATGGACCGGTTTTCCCGGTAATCCGTATTTGTA (site GTCACGCCTTA) | 0.476
* ACGAATTCATGGACCGGTTTTCCCGGTAATCCGTATTTGCG (site ACGAATTCTCG) | 2.06
* TATATCGCATGGACCGGTTTTCCCGGTAATCCGTATTTGAT (site TATATCGCTAT) | 0.63
* TAACTAGCATGGACCGGTTTTCCCGGTAATCCGTATTTGAA (site TAGCTAGCTTT) | 0.00713
* AATGCAACATGGACCGGTTTTCCCGGTAATCCGTATTTGTG (site AATGCAACTCA) | 0.302
* AGATGGGCATGGACCGGTTTTCCCGGTAATCCGTATTTGGA (site AGATGGGCTTC) | 1.22
* GAAGGTTCATGGACCGGTTTTCCCGGTAATCCGTATTTGTT (site GAAGGTTCTAA) | 2.35
* CACATGGCATGGACCGGTTTTCCCGGTAATCCGTATTTGGA (site CACGTGGCTTC) | 0.414
* GGCATTCCATGGACCGGTTTTCCCGGTAATCCGTATTTGAA (site GGCACTCCTTT) | 0.0138
* CAATCATCATGGACCGGTTTTCCCGGTAATCCGTATTTGCT (site CGATCATCTAG) | 0.258
* CAAGCACCATGGACCGGTTTTCCCGGTAATCCGTATTTGCT (site CAAGCATCTAG) | 0.0059
* GGACTGGCATGGACCGGTTTTCCCGGTAATCCGTATTTGGT (site GGACTGGCTAC) | 0.371
* GTTGGAGCATGGACCGGTTTTCCCGGTAATCCGTATTTGCA (site GTTCGAGCTTG) | 0
* GATCGAGCATGGACCGGTTTTCCCGGTAATCCGTATTTGCA (site GTTCGAGCTTG) | 1.58
* ACAGTAACATGGACCGGTTTTCCCGGTAATCCGTATTTGCT (site ACAGTATCTTG) | 0.994
* GTTGATCCATGGACCGGTTTTCCCGGTAATCCGTATTTGGT (site GTTGCTCCTAC) | 0.0151
* CCCTTCTCATGGACCGGTTTTCCCGGTAATCCGTATTTGGT (site CCCTTCTCTGC) | 0
* AATTATGCATGGACCGGTTTTCCCGGTAATCCGTATTTGAA (site AATTATGCTTT) | 0.313
* CAGACGACATGGACCGGTTTTCCCGGTAATCCGTATTTGGG (site CAGACGACTCC) | 0.00735
* GTGGGTACATGGACCGGTTTTCCCGGTAATCCGTATTTGAC (site GTTGGTACTGT) | 2.72
* CCCTAACCATGGACCGGTTTTCCCGGTAATCCGTATTTGCC (site CCCTAGCCTGG) | 0

----------
- Experiment Summary: recombinant UMI read abundance after kanamycin selection (control-corrected) (log10(CPM+1)); higher = more efficient recombination; extreme values may be limits of the assay; sequences stand for … in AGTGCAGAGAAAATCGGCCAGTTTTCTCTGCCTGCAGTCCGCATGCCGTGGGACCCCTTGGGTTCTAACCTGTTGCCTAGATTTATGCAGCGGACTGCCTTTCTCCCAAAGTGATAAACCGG…AGGTTGGTTTCACT; site = the 11-nt donor
# recombinant UMI read abundance (log10) per entry
Readout Label: recombinant UMI read abundance (log10)

• TAACATTCATGGACCGGTTTTCCCGGTAATCCGTATTTGGG (site TAACATTCTCC) = 0.809
• GGCCAGCCATGGACCGGTTTTCCCGGTAATCCGTATTTGTT (site GGCCATCCTAA) = 0
• CAGTCGACATGGACCGGTTTTCCCGGTAATCCGTATTTGAG (site CAGTCGACTCC) = 0.0115

----------
- Experiment Summary: recombinant UMI read abundance after kanamycin selection (control-corrected) (log10(CPM+1)); higher = more efficient recombination; extreme values may be limits of the assay; sequences stand for … in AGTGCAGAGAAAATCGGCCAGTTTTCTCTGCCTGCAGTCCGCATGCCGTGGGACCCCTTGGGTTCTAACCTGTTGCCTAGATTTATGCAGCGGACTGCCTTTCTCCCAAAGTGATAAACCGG…AGGTTGGTTTCACT; site = the 11-nt donor
# recombinant UMI read abundance (log10) per entry
Readout Label: recombinant UMI read abundance (log10)

* ATGCATGCATGGACCGGTTTTCCCGGTAATCCGTATTTGGT (site GTGCATGCTAC) | 0.323
* CCCATCTCATGGACCGGTTTTCCCGGTAATCCGTATTTGTC (site CCCATATCTGA) | 0
* CCGTTGGCATGGACCGGTTTTCCCGGTAATCCGTATTTGTG (site CCGTTTGCTCA) | 0.00375
* AATAAAGCATGGACCGGTTTTCCCGGTAATCCGTATTTGGC (site AATAAAGCTGC) | 1.32
* GATTATTCATGGACCGGTTTTCCCGGTAATCCGTATTTGCT (site GATTATACTAG) | 0
* GACTTAGCATGGACCGGTTTTCCCGGTAATCCGTATTTGGT (site GACTTAGCTAC) | 0.191
* AGGGAGACATGGACCGGTTTTCCCGGTAATCCGTATTTGCA (site AGGCAGACTTG) | 0.473
* GTGCTTGCATGGACCGGTTTTCCCGGTAATCCGTATTTGGT (site GTGCATGCTAC) | 0.0165
* AATAGTGCATGGACCGGTTTTCCCGGTAATCCGTATTTGCC (site AATAGTGCTGG) | 1.5
* GTGCTTGCATGGACCGGTTTTCCCGGTAATCCGTATTTGGT (site GTGCCTGCTAC) | 0.269
* GTATGCACATGGACCGGTTTTCCCGGTAATCCGTATTTGTA (site CTATGCACTTA) | 0.712
* GTGCATGCATGGACCGGTTTTCCCGGTAATCCGTATTTGGT (site GTGCATACTAC) | 1.69
* CACTTGGCATGGACCGGTTTTCCCGGTAATCCGTATTTGCA (site CACTTGGCTTA) | 0.00954
* TGTACTGCATGGACCGGTTTTCCCGGTAATCCGTATTTGCC (site TGTACTGCTGG) | 0.865
* CGCTCATCATGGACCGGTTTTCCCGGTAATCCGTATTTGCG (site CGATCATCTAG) | 0
* CGGACCTCATGGACCGGTTTTCCCGGTAATCCGTATTTGCT (site CGGACGTCTAG) | 0.00745
* CGATTATCATGGACCGGTTTTCCCGGTAATCCGTATTTGAC (site CGATTATCTGT) | 1.98
* GGTGCGTCATGGACCGGTTTTCCCGGTAATCCGTATTTGTT (site GGTTCGTCTAA) | 0.0103
* CACCTGGCATGGACCGGTTTTCCCGGTAATCCGTATTTGGA (site CACATGGCTTC) | 0.0162
* CAAGTCTCATGGACCGGTTTTCCCGGTAATCCGTATTTGGG (site CAAGTCGCTCC) | 0.02
* GTTGAGCCATGGACCGGTTTTCCCGGTAATCCGTATTTGTG (site GTTGAGCCTCA) | 0.033
* TCATACTCATGGACCGGTTTTCCCGGTAATCCGTATTTGCA (site TCATACTCTTG) | 2.69
